Assay: Pharmacokinetic evaluation following a single oral and intravenous administration
Type: in vivo, CD1 mouse
Conditions: CD1, mouse, plasma, iv, 1 mg/kg, Table 3, IV Dose: 1 mg/kg, 5 min, Mouse 1; read-out: Concentration
Experimental: A NMP stock solution was prepared by adding 1.136 mL of NMP to 5.68 mg of compound no. 42140 with vortexing and sonification, to obtain a solution with a concentration at 5 mg/mL of 42140:01. Next, to prepare an intravenous formulation, 0.100 mL of the 5 mg/mL stock solution was placed in a new vial. 0.100 mL of NMP and 0.400 mL of PEG400 were added with vortexing and sonification, followed by addition of 0.400 mL of saline with vortexing and sonification. […] 42140:01. […]
property.name: concentration at 5 min (ng/mL)
Give your result in ng/mL as a bare value.

# input Please give the documented concentration at 5 min of CNCc1ccc(C[C@H](NC(C)=O)c2nnc(-c3cccc(OC(F)(F)F)c3)s2)cc1
# output 96.6

These measurements were taken from patent US11033535B2.
